Ref: PubChem BioAssay AID485344

molecular target: D(2) dopamine receptor (Homo sapiens); assay: HTS Assay for Allosteric Antagonists of the Human D2 Dopamine Receptor: Primary Screen for Antagonists; conditions: HEK293 TREx D2 cells, calcium flux, dopamine EC80; at 10 µM; note: 0% is about no effect
Hit rate of the full screen: of about 340,000 compounds, about 6,900 (2%) were called active. Cut-off read from the data, not from the text of the source: active = inhibition above about 30%; inactive = below that, where a call was filed. What follows is part of a selection rich in actives, with near analogues and random picks from the rest.
Labels: true (1) (active), false (0) (inactive)

INSERT INTO measurements (compound, grouplabel) VALUES
  ('CC1Cc2ccccc2N1C1=CC(=O)CC(C)(C)C1 (stereo unspecified)', 'false (0)'),
  ('CCN(C(=O)COC(=O)c1c(NC(C)=O)sc(C)c1C)C1CCS(=O)(=O)C1 (stereo unspecified)', 'false (0)'),
  ('CCN(C(=O)COC(=O)/C=C/c1nc2ccccc2s1)C1CCS(=O)(=O)C1 (stereo unspecified)', 'true (1)'),
  ('Cc1ccc(CN2CCN(/N=C/c3cccnc3)CC2)c(C)c1', 'false (0)'),
  ('Cc1ccc(CN2CCN(c3ncccn3)CC2)c(C)c1', 'true (1)'),
  ('c1cnc(N2CCN(c3ccc4ccccc4n3)CC2)nc1', 'false (0)');
